Ref: PubChem BioAssay (NCI)

- Tested on: 786-0 renal
- PROTOCOL_TEXT: NCI-60 one-dose screen, 48 h
- SETUP_CONDITIONS: 10 µM unless noted
The panel holds about 83,000 compounds, 20% with a hit somewhere; the sample as a whole holds those more often. Activity calls are given as the source filed them. Rule for the calls: active = growth percent below 10; inactive = the rest.
Pick one: active, inactive

Input line: Can you look up the reported call for CCN(CC)Cc1cc(C=C2C(=O)NC(=S)NC2=O)cc(OC)c1O for me?
Output line: inactive

Input line: Also check COc1ccc(Nc2ncc(Br)c(NCCCNC(=O)C3CCCC3)n2)cc1
Output line: inactive

Input line: Please answer likewise for O=C(O)c1ccc(-n2cc(/C=N/Nc3ccccc3)c(-c3ccc(F)cc3F)n2)cc1
Output line: inactive

Input line: Now try CCN1C(=O)N(CC)C2C1NN=c1s/c(=C\c3ccccc3F)c(=O)n12 (stereo unspecified) .
Output line: inactive

Input line: What about this molecule? O=C1c2c(c3c4ccccc4[nH]c3c3ccc4ccccc4c23)C(=O)N1CCN1CCNCC1
Output line: inactive

Input line: Here is the next molecule: N#CC(C#N)N=Nc1ccc(Br)cc1
Output line: inactive

Input line: Proceed to NC(=O)c1c(NC(=O)c2ccc3ccccc3c2)sc2c1CCC(=O)C2
Output line: inactive

Input line: Queued: Cc1ccc(C)n1-c1ccccc1-n1c(C)ccc1C
Output line: inactive

Input line: Field entry: CC1CCN(CCOc2ccc(CNc3ccc4nc(CCC5CCCCC5)[nH]c4c3)cc2)CC1
Output line: active

Input line: Query CCOc1ccccc1Cn1ccnc1CCc1c(Cl)c(O)cc(O)c1C(=O)OC next
Output line: inactive

Input line: Also COC(CC(F)F)c1cn(S(=O)(=O)c2ccc(C)cc2)c2ccccc12 (stereo unspecified) ?
Output line: inactive

Input line: // next record Cc1ccc(C2=Nc3c(N)ncnc3NC(c3cccc(Nc4ccnc5cc(C(F)(F)F)ccc45)c3)C2)cc1 (stereo unspecified)
Output line: inactive

Input line: For O=c1c2ccccc2n2cnc3ccc(Cl)c1c32 then?
Output line: inactive

Input line: And for COc1cc(-c2cncn2-c2ccc(-c3nc4ccc(F)cc4s3)cc2)ccc1F ?
Output line: inactive

Input line: Queued: CCOC(=O)c1c(C(=O)c2cn(C)c3ccc(Br)cc23)c(-c2cn(C)c3ccc(Br)cc23)n(NC(=O)OC(C)(C)C)c1C
Output line: inactive

Input line: Try the molecule CCCC/C=C/[C@@H]1C[C@H]1CCO
Output line: inactive

Input line: Same read-out for COc1ccc(F)cc1/C=C/C(=O)/C=C(/C=C/c1cc(F)ccc1OC)OB(F)F ?
Output line: inactive

Input line: And the next one, CS(=O)(=O)c1ccc(-c2cnn3ccc(-c4cccc(S(=O)(=O)C5CC5)c4)nc23)cc1 ?
Output line: inactive

Input line: Again, but for O=S(=O)(NCCCNc1nccc(-c2c(-c3ccc(F)c(O)c3)nc3occn23)n1)c1ccc(Cl)cc1
Output line: inactive

Input line: One more molecule: COc1ccc(CN2c3ccccc3Sc3ccccc32)cc1F
Output line: inactive

Input line: Consider next the molecule Cn1ccnc1C(=O)/C=C/c1ccc(C(=O)Nc2ccccc2O)cc1 in the same way.
Output line: active
